Give Activity for every item shown.
# target-or-test-system: Sodium/potassium-transporting ATPase (Sus scrofa) (UniProt P05027+P05024+D2WKD8+D2WKD7+F1ST41)
# method-description: Inhibition of porcine kidney Na+/K+-ATPase assessed as residual activity at 50 uM preincubated for 2 mins followed by ATP addition and measured after 6 mins by bagin-sky assay relative to untreated control
# Assay type: protein-complex assay
Give the value, in units of %, as a plain number.

Consider the compound shown here: CO[C@H]1CC[C@@]2(C)[C@@H](CC[C@@H]3[C@@H]2CC[C@]2(C)[C@@H](C4=CC(=O)OC4)[C@@H](OC(C)=O)[C@@H]4O[C@@]342)C1 What is its recorded Activity? 104

Give its Activity value. Item: CO[C@H]1CC[C@@]2(C)[C@@H](CC[C@@H]3[C@@H]2CC[C@]2(C)[C@@H](C4=CC(=O)OC4)[C@@H](OC(C)=O)C[C@]32O)C1 24

Which Activity reading was recorded for the compound CO[C@H]1CC[C@@]2(C)[C@@H](CC[C@@H]3[C@@H]2CC[C@]2(C)[C@@H](C4=CC(=O)OC4)[C@@H](O)C[C@]32O)C1 ? 25

Looking for the measured Activity of CO[C@H]1CC[C@@]2(C)[C@@H](CC[C@@H]3[C@@H]2CC[C@]2(C)[C@@H](C4=CC(=O)OC4)[C@@H](OC(C)=O)[C@H]4O[C@]342)C1 , can you help? 25

// lookup Activity for CC(=O)O[C@H]1C[C@]2(O)[C@@H]3CC[C@@H]4C[C@@H](O)CC[C@]4(C)[C@H]3CC[C@]2(C)[C@H]1C1=CC(=O)OC1 75

Please give the measured Activity for this compound: CO[C@H]1CC[C@@]2(C)[C@@H](CC[C@@H]3[C@@H]2CC[C@]2(C)[C@@H](c4ccoc4)[C@@H](OC(C)=O)C[C@]32O)C1 75

Name the reported Activity value associated with the compound CO[C@H]1CC[C@@]2(C)[C@@H](CC[C@@H]3[C@@H]2CC[C@]2(C)[C@@H](C4=CC(=O)OC4)[C@@H](O)[C@H]4O[C@]342)C1 75

Looking for the measured Activity of CO[C@H]1CC[C@@]2(C)[C@@H](CC[C@@H]3[C@@H]2CC[C@]2(C)[C@@H](c4ccoc4)[C@@H](O)[C@H]4O[C@]342)C1 , can you help? 101

For the compound shown here, CO[C@H]1C[C@H](O[C@H]2CC[C@@]3(C)[C@H](CC[C@@H]4[C@@H]3CC[C@]3(C)[C@@H](C5=CC(=O)OC5)[C@@H](OC(C)=O)C[C@]43O)C2)O[C@@H](C)[C@@H]1O , give the reported Activity. 49
